Hey, just so you know, these numbers are from PubChem BioAssay (NCI).

System: ACHN renal
EXPERIMENT: NCI-60 one-dose screen, 48 h
CONDITION_DESCRIPTION: 10 µM unless noted
Compounds without any hit were thinned out: in the full panel of roughly 83,000, 20% have a hit. Calls of active or inactive are those of the source. How the source made its calls: active means growth percent below 10; inactive means the rest.
One label from this list, please: class 1 for active, class 0 for inactive

Look over these answered cases.
{"columns": ["COMPOUND", "MEASURED_ON", "ASSIGNED_LABEL"],
 "data": [
  ["Cc1cc(Cl)ccc1NC(=O)c1cc2ccccc2cc1O", "ACHN renal", "class 1"],
  ["CC(C)CCNC(=O)Cn1cccc(NC(=O)OCc2ccccc2)c1=O", "ACHN renal", "class 0"],
  ["COc1cc(-c2csc(NC(=O)c3cc(-n4cnc(C)c4)cc(C(F)(F)F)c3)n2)cc(OC)c1OC", "ACHN renal", "class 0"],
  ["O=C(O)c1ccc(-n2cc(/C=N/Nc3ccc(F)cc3)c(-c3cc4ccccc4oc3=O)n2)cc1", "ACHN renal", "class 0"],
  ["C1=CN2CC(c3ccccc3)=NNC2c2ccccc21 (stereo unspecified)", "ACHN renal", "class 0"]
]}

For CN([O-])c1nc(N(C)[O-])nc(N2CCOCC2)n1.CN([O-])c1nc(N(C)[OH2+])nc(N2CCOCC2)n1.[Fe+3] , which call appears in the assay record?
class 0

For O=C1/C(=C/c2ccc(Cl)cc2)COc2ccc(O)c(O)c21 , which call appears in the assay record?
class 1

For CC1(C)c2[nH]c3ccccc3c2C[C@]2(C)[C@H]3CC=C4[C@@H]5C[C@@](C)(C(N)=O)CC[C@]5(C)CC[C@@]4(C)[C@]3(C)CC[C@@H]12 , which call appears in the assay record?
class 0

For CCCCCCCCn1ccc2cc(NC(=O)CN3CCN(c4nc(C)cc(Cl)n4)CC3)ccc21 , which call appears in the assay record?
class 0

For CCn1c(=S)sc2c(Nc3ccc(F)cc3)nc(-c3cccnc3)nc21 , which call appears in the assay record?
class 0

For COc1cccc(CNc2ncnc3c2ncn3C2OC(CO)C(O)C2O)c1O (stereo unspecified) , which call appears in the assay record?
class 1

For Cc1ccccc1Cn1cnc2ccc(-c3cc(NC(=O)c4ccc(NC5CCN(C)CC5)cc4)n[nH]3)cc21 , which call appears in the assay record?
class 0

For COc1ccc(-c2nc3c(c(-c4ccccc4)nn3-c3ccccc3)c(-c3ccc(N4CCN(C)CC4)cc3)c2C#N)cc1 , which call appears in the assay record?
class 0

For COc1cc(OC)cc(C2=C3CC[C@@H]4[C@H](CC[C@]5(C)C(=O)CC[C@@H]45)C3=CC3C(O)c4cccnc4N4C(=O)COC234)c1 (stereo partly specified) , which call appears in the assay record?
class 0

For COc1ccc2c(O)c(/C=C3\N=Nc4ncccc43)oc2c1C[C@H]1CCNC[C@H]1F , which call appears in the assay record?
class 1

For O=C(Nc1nn(-c2ccc(Cl)cc2Cl)nc1-c1ccccc1)c1ccccc1 , which call appears in the assay record?
class 0

For CCS/C(Nc1ccccc1)=C(\C#N)C(=O)N/N=C/c1ccc(Cl)cc1Cl , which call appears in the assay record?
class 0

For O=C(Cn1c(-c2ccc([N+](=O)[O-])cc2)nc2ccccc21)NNC(=O)c1cccnc1 , which call appears in the assay record?
class 0

For CCOC(=O)c1cc(-c2ccc([N+](=O)[O-])cc2)n(-c2ccc(C(=O)O)c(O)c2)c1C , which call appears in the assay record?
class 0

For N#Cc1nc(-c2ccccc2)oc1S(=O)(=O)N1CCOCC1 , which call appears in the assay record?
class 1

For CSc1nnc(-c2cnn3c2NC(c2ccccc2)C3)n1-c1ccc(C(F)(F)F)cc1 (stereo unspecified) , which call appears in the assay record?
class 0
